# Test system: HS 578T breast
# protocol details: NCI tumour cell line growth inhibition, 48 h; in the data active = GI50 below about 0.43 µM; inactive = the rest
Labels: 1 (active), -1 (inactive)

{"columns": ["compound", "class assignment"],
 "data": [
  ["C#CC[C@@H]1C[C@]2(C)[C@H]3CC=C4[C@H]5CC(C)(C)CC[C@]5(C(=O)NCCCCN)CC[C@@]4(C)[C@]3(C)CC[C@H]2C(C)(C)[C@H]1OC(C)=O", -1],
  ["Cc1nc2sc(C(=O)Nc3ccccc3)c(N)c2cc1C(=O)/C=C/c1ccccc1", -1],
  ["Fc1cccc(COc2ccc(Nc3ncnc4cc(-c5ccc[nH]5)sc34)cc2Cl)c1", -1],
  ["COC(=O)CNC(=O)[C@@H](OC)[C@@H]1Cc2cc3cc(OC4CC(OC5CC(O)C(O)C(C)O5)C(O)C(C)O4)c(C)c(O)c3c(O)c2C(=O)[C@H]1OC1CC(OC2CC(OC3CC(C)(O)C(O)C(C)O3)C(O)C(C)O2)C(O)C(C)O1 (stereo partly specified)", 1],
  ["CN(CCOc1ccc(C#N)cc1)CCOc1ccc(C#N)cc1", -1],
  ["C=C1C(=O)O[C@H]2[C@H]1CC/C(COC(=O)N1CCC[C@H]1C(=O)Nc1ccc(OC)c(C(N)=O)c1O)=C\\CC[C@@]1(C)O[C@@H]21", -1]
]}

====

# Tested on: CAKI-1 renal
# protocol details: NCI tumour cell line growth inhibition, 48 h
Each item that follows carries a reported TGI.

{"columns": ["compound", "target under test", "TGI"],
 "data": [
  ["COc1cccc(NC(=O)CC(=O)N2N=C(C)C(N=Nc3ccc(S(=O)(=O)c4ccc(N=NC5C(=O)N(C(=O)CC(=O)Nc6cccc(OC)c6)N=C5C)cc4)cc3)C2=O)c1 (centres undefined)", "CAKI-1 renal", "> 100 µM"],
  ["CCOC(=O)C(=O)Nc1c(C)cccc1C", "CAKI-1 renal", "> 100 µM"],
  ["COc1ccc(O)c(C#N)c1C#N", "CAKI-1 renal", "> 100 µM"],
  ["COC(=O)c1c(C)cccc1/C=C1\\Cc2cc(C)cc(C)c2C1=O", "CAKI-1 renal", "> 100 µM"],
  ["CCCCCCCCCc1cc(=O)c2ccc(O)cc2o1", "CAKI-1 renal", "81.8 µM"],
  ["CCCCCCCCCCCCCCCC(=O)OCC1OC(n2c(O)c(N=NC(N)=S)c3ccc([N+](=O)[O-])cc32)C(OC(C)=O)C1OC(C)=O (centres undefined)", "CAKI-1 renal", "> 100 µM"],
  ["CC12Cc3cc4c(cc3C1(c1ccc([N+](=O)[O-])cc1)OCCO2)OCO4 (centres undefined)", "CAKI-1 renal", "> 100 µM"],
  ["CC(C)C[P+](c1ccccc1)(c1ccccc1)c1ccccc1", "CAKI-1 renal", "37.8 µM"],
  ["CC1(C)N=C(N)N=C(N)N1c1cccc(OCCOc2ccc([N+](=O)[O-])cc2)c1", "CAKI-1 renal", "> 100 µM"],
  ["COc1ccc2nc3cc(Cl)ccc3c(NCCCN(CCCl)CCCl)c2c1", "CAKI-1 renal", "0.123 µM"],
  ["O=S1C2=C(Cc3ccccc3)C(Cc3ccccc3)=C1CCc1cccc(c1)CC2", "CAKI-1 renal", "28.7 µM"],
  ["C1=C\\CCCCN2C[C@H]3CCCC/C=C\\CCCCN4CC[C@@H]([C@H](CCCCCC/1)C4)[C@H](C3)C2", "CAKI-1 renal", "5.6 µM"],
  ["CCC(CCCC[C@@H]1CC[C@H]2CC(=O)C[C@@H]12)OC (some centres undefined)", "CAKI-1 renal", "> 100 µM"],
  ["Cc1nc2c(sc3nc4ccccc4n32)c(=O)[nH]1", "CAKI-1 renal", "> 100 µM"],
  ["CCOP(=O)(OCC)C(NC(c1ccccc1)c1ccccc1)c1cccc2ccccc12 (centres undefined)", "CAKI-1 renal", "14.5 µM"],
  ["N[C@H](C(=O)O)[C@H](Cl)CC(=O)O", "CAKI-1 renal", "> 100 µM"],
  ["COC(=O)/N=[N+](\\[O-])C(c1ccc(OC)cc1)C1CCCCC1 (centres undefined)", "CAKI-1 renal", "10.3 µM"],
  ["Clc1nc(Cl)c2ncn(Cc3ccc(COc4cccc(OCc5ccc(Cn6cnc7c(Cl)nc(Cl)nc76)cc5)c4)cc3)c2n1", "CAKI-1 renal", "> 100 µM"],
  ["COc1cc2c(c(OC)c1OC)-c1ccc(SC)cc1[C@H](OC(=O)c1ccccc1)CC2", "CAKI-1 renal", "> 100 µM"]
]}
